Test system: FLT3 (human), P36888 [K663Q]
testName: KINOMEscan competition binding
conditionsUsed: compound 10.0 µM
// reported kinase still bound, per cent of control per item

Below are worked cases with known answers.
- smilesEntry: "COc1cc(N2CCN(C)CC2)ccc1Nc1ncc2c(n1)Nc1ccccc1NC2=O"
  targetDesc: "FLT3 (human), P36888 [K663Q]"
  kinase still bound, per cent of control: "75%"
- smilesEntry: "CN1C(=O)c2ccccc2N(C)c2nc(NS(=O)(=O)c3ccc(N)cc3)ncc21"
  targetDesc: "FLT3 (human), P36888 [K663Q]"
  kinase still bound, per cent of control: "100%"
- smilesEntry: "CS(=O)(=O)Nc1ccc(-c2cc(/C=C3\\SC(=N)NC3=O)c[nH]c2=O)cc1"
  targetDesc: "FLT3 (human), P36888 [K663Q]"
  kinase still bound, per cent of control: "13%"
- smilesEntry: "CN1CCN(c2ccc(C(=O)Nc3ncc4c(n3)N(C)c3ccccc3C(=O)N4C)cc2)CC1"
  targetDesc: "FLT3 (human), P36888 [K663Q]"
  kinase still bound, per cent of control: "100%"
- smilesEntry: "COc1cc(N2CCN(C)CC2)ccc1Nc1ncc2c(n1)N(C(C)C)c1ccccc1C(=O)N2"
  targetDesc: "FLT3 (human), P36888 [K663Q]"
  kinase still bound, per cent of control: "13%"

Name the recorded kinase still bound, per cent of control of the molecule listed here: `COc1cc(N2CCN(C)CC2)ccc1Nc1ncc2c(n1)N(C)c1sccc1C(=O)N2C`
93%

Quote kinase still bound, per cent of control reported for `N=C1NC(=O)/C(=C/c2ccc(-c3cncc4ccccc34)o2)S1` please.
8.1%

Dear colleague, please send me the reported kinase still bound, per cent of control for `COc1cc(N2CCC(O)CC2)ccc1Nc1ncc2c(n1)N1CCc3cccc(c31)C(=O)N2C` when you can.
96%

State its kinase still bound, per cent of control for this molecule: `CN1C(=O)c2ccccc2N(C)c2nc(Nc3ccc(N4CCC(O)CC4)cc3)ncc21`
85%

Please report kinase still bound, per cent of control for the following molecule: `CN1C(=O)[C@H]2CCC[C@H]2N(C2CCCC2)c2nc(Nc3ccc(C(N)=O)cc3)ncc21`
14%

Fill in reported kinase still bound, per cent of control for this entry: `COc1cc(N2CCN(C)CC2)ccc1Nc1ncc2c(n1)N1CCC[C@H]1CC(=O)N2`
19%

Could you please provide reported kinase still bound, per cent of control for `CC(C)Oc1cc(N2CCN(C)CC2)ccc1Nc1ncc2c(n1)N(C)c1ccccc1C(=O)N2` ? Thanks!
10%

Specify reported kinase still bound, per cent of control for the molecule shown: `O=C1NC(=O)/C(=C/c2c[nH]c(=O)c(-c3ccc(N4CCNCC4)nc3)c2)S1`
92%

---

kinase still bound, per cent of control overview
targetDesc: UniProt O43293
Sequence (O43293 whole entry, looked up): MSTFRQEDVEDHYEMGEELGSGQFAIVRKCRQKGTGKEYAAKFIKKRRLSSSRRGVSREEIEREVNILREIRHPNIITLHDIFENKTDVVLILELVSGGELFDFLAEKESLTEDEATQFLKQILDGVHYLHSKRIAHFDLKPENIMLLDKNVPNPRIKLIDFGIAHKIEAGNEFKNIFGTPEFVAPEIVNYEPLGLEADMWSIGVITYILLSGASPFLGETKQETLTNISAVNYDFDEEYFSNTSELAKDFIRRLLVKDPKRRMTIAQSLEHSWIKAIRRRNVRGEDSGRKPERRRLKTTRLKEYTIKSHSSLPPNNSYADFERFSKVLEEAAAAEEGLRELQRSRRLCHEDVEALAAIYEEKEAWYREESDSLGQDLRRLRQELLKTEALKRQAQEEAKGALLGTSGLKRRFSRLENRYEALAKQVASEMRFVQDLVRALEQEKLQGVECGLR
testName: KINOMEscan competition binding
conditionsUsed: compound 10.0 µM
Record the value in %, omitting the unit from your answer.

Use the examples below as a reference point.
- smilesEntry: "O=C1NC(=S)S/C1=C\\c1ccc(-c2cncc3ccccc23)o1"
  kinase still bound, per cent of control [%]: 7.4
- smilesEntry: "N=C1NC(=O)/C(=C/c2ccc(-c3cncc4ccccc34)o2)S1"
  kinase still bound, per cent of control [%]: 6.2
- smilesEntry: "COc1cc(N2CCC(C)(O)CC2)ccc1Nc1ncc2c(n1)N(C1CCCC1)CCC(=O)N2C"
  kinase still bound, per cent of control [%]: 34

Identify measured kinase still bound, per cent of control corresponding to `COc1cc(N2CCN(C)CC2)ccc1Nc1ncc2c(n1)N(C)c1sccc1C(=O)N2C`
42

Dear colleague, please send me the reported kinase still bound, per cent of control for `Nc1cccc(-c2cc(/C=C3\SC(=O)NC3=O)c[nH]c2=O)c1` when you can.
0.6

Name the recorded kinase still bound, per cent of control of the item `COc1cc(N2CCC(O)CC2)ccc1Nc1ncc2c(n1)N1CCc3cccc(c31)C(=O)N2C` in your answer.
37

Quick one: give measured kinase still bound, per cent of control for `CSC1=NC(=O)/C(=C/c2c[nH]c(=O)c(-c3ccc(NS(C)(=O)=O)cc3)c2)S1`
6.2

Report measured kinase still bound, per cent of control; entry is `CN1C(=O)c2ccccc2N(C)c2nc(NS(=O)(=O)c3ccc(N)cc3)ncc21`
95

Tell me kinase still bound, per cent of control reported for `COc1cc(N2CCN(C)CC2)ccc1Nc1ncc2c(n1)Nc1ccccc1NC2=O`
90

Supply recorded kinase still bound, per cent of control for `N=C1NC(=O)/C(=C/c2ccc(-c3csc4ccccc34)o2)S1` here.
29

---

targetDesc: CAMK1 (human)
testName: KINOMEscan competition binding
conditionsUsed: compound 10.0 µM
readoutType: kinase still bound, per cent of control
Could you write the number and then its unit?

Guide cases for kinase still bound, per cent of control, answers given:
- smilesEntry: "CN1CCN(c2ccc(C(=O)Nc3ncc4c(n3)N(C)c3ccccc3C(=O)N4C)cc2)CC1"
  readoutType: "kinase still bound, per cent of control"
  recordedResult: "100%"
- smilesEntry: "COc1cc(N2CCN(C)CC2)ccc1Nc1ncc2c(n1)N(C)c1ccccc1N(C)C2=O"
  readoutType: "kinase still bound, per cent of control"
  recordedResult: "100%"
- smilesEntry: "CN1C(=O)c2ccccc2N(C)c2nc(NS(=O)(=O)c3ccc(N)cc3)ncc21"
  readoutType: "kinase still bound, per cent of control"
  recordedResult: "100%"
- smilesEntry: "N=C1NC(=O)/C(=C/c2ccc(-c3cncc4ccccc34)o2)S1"
  readoutType: "kinase still bound, per cent of control"
  recordedResult: "8.4%"
- smilesEntry: "COc1cc(N2CCC(O)CC2)ccc1Nc1ncc2c(n1)N1CCc3cccc(c31)C(=O)N2C"
  readoutType: "kinase still bound, per cent of control"
  recordedResult: "78%"

Consider now this further molecule.
Complete the entry with kinase still bound, per cent of control for `O=C1NC(=O)/C(=C/c2c[nH]c(=O)c(-c3ccc(N4CCNCC4)nc3)c2)S1`
68%

---

Catalogue of kinase still bound, per cent of control values
targetDesc: PAK6 (human) (UniProt Q9NQU5)
Sequence (Q9NQU5 whole entry, looked up): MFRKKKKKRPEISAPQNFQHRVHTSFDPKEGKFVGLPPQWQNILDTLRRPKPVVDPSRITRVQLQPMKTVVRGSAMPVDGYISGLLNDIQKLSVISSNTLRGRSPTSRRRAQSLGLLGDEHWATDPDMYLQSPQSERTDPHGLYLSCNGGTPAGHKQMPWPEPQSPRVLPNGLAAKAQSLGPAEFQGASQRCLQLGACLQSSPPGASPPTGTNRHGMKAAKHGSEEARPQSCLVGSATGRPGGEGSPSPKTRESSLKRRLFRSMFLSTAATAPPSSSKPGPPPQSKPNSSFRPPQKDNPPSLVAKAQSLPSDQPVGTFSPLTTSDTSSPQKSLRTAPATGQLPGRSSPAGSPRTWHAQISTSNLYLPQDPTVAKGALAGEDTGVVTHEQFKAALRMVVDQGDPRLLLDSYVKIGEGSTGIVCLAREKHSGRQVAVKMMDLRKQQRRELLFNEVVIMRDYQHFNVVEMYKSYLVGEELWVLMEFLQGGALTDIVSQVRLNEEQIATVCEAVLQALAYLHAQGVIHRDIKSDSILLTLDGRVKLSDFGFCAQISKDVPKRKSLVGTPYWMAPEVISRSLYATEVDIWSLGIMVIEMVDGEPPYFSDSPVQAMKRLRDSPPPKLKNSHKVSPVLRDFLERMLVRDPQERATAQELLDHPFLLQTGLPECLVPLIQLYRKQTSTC
testName: KINOMEscan competition binding
conditionsUsed: compound 10.0 µM
All answers are understood in %, so give the number only.

Consider the following illustrative entries.
- smilesEntry: "COc1cc(N2CCN(C)CC2)ccc1Nc1ncc2c(n1)Nc1ccccc1NC2=O"
  targetDesc: "PAK6 (human) (UniProt Q9NQU5)"
  kinase still bound, per cent of control [%]: 100
- smilesEntry: "CN1C(=O)c2ccccc2N(C)c2nc(NS(=O)(=O)c3ccc(N)cc3)ncc21"
  targetDesc: "PAK6 (human) (UniProt Q9NQU5)"
  kinase still bound, per cent of control [%]: 100
- smilesEntry: "Cc1cn(-c2cc(NC(=O)c3cccc4cc(-c5ccc(/C=C6\\SC(=N)NC6=O)o5)ccc34)cc(C(F)(F)F)c2)cn1"
  targetDesc: "PAK6 (human) (UniProt Q9NQU5)"
  kinase still bound, per cent of control [%]: 30
- smilesEntry: "CN1CCN(c2ccc(C(=O)Nc3ncc4c(n3)N(C)c3ccccc3C(=O)N4C)cc2)CC1"
  targetDesc: "PAK6 (human) (UniProt Q9NQU5)"
  kinase still bound, per cent of control [%]: 100
- smilesEntry: "CN1C(=O)c2ccccc2N(C)c2nc(Nc3ccc(N4CCC(O)CC4)cc3)ncc21"
  targetDesc: "PAK6 (human) (UniProt Q9NQU5)"
  kinase still bound, per cent of control [%]: 100

Supply kinase still bound, per cent of control value. Item: `COc1cc(N2CCN(C)CC2)ccc1Nc1ncc2c(n1)N(C)c1sccc1C(=O)N2C`
74

Note down kinase still bound, per cent of control recorded for `N=C1NC(=O)/C(=C/c2ccc(-c3cncc4ccccc34)o2)S1`
14

# return recorded kinase still bound, per cent of control for input `COc1cc(N2CCN(C)CC2)ccc1Nc1ncc2c(n1)N(C)c1ccccc1N(C)C2=O`
100

Please report kinase still bound, per cent of control for the following compound: `COc1cc(N2CCC(O)CC2)ccc1Nc1ncc2c(n1)N1CCc3cccc(c31)C(=O)N2C`
92

Identify the reported kinase still bound, per cent of control for the following entry. `O=C1NC(=O)/C(=C/c2c[nH]c(=O)c(-c3ccc(N4CCNCC4)nc3)c2)S1`
17

Answer with reported kinase still bound, per cent of control of `O=C1NC(=S)S/C1=C\c1ccc(-c2cncc3ccccc23)o1`
29

---

targetDesc: PRKCQ (human) (UniProt Q04759)
Sequence (Q04759 whole entry, looked up): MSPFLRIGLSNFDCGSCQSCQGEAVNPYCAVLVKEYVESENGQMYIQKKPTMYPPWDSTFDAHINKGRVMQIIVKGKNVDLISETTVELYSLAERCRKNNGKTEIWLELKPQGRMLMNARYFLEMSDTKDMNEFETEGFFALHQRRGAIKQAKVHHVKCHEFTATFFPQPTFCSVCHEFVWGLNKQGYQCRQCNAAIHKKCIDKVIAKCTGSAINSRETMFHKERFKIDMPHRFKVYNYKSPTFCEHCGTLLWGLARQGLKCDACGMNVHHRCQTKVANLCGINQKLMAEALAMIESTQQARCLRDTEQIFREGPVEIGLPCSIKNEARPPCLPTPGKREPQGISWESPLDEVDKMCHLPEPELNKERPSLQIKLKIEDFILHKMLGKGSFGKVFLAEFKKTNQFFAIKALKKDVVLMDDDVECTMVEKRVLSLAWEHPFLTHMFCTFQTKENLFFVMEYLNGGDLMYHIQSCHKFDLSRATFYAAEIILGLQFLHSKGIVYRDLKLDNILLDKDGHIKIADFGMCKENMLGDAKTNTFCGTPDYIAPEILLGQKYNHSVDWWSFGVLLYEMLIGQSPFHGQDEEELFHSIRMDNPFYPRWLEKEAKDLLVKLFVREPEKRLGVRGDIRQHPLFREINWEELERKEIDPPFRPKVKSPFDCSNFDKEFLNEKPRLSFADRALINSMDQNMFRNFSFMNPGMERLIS
testName: KINOMEscan competition binding
conditionsUsed: compound 10.0 µM
Reported kinase still bound, per cent of control is given for each of the following compounds.
Just the number please, in %, no unit attached.

Reference set, count: 2
- smilesEntry: "COc1cc(N2CCC(O)CC2)ccc1Nc1ncc2c(n1)N1CCc3cccc(c31)C(=O)N2C"
  targetDesc: "PRKCQ (human) (UniProt Q04759)"
  unitString: "%"
  kinase still bound, per cent of control: 97
- smilesEntry: "O=C1NC(=O)/C(=C/c2c[nH]c(=O)c(-c3ccc(N4CCNCC4)nc3)c2)S1"
  targetDesc: "PRKCQ (human) (UniProt Q04759)"
  unitString: "%"
  kinase still bound, per cent of control: 44

Report kinase still bound, per cent of control, nothing else, for this compound: `CN1C(=O)c2ccccc2N(C)c2nc(Nc3ccc(N4CCC(O)CC4)cc3)ncc21`
92

Identify measured kinase still bound, per cent of control associated with `COc1cc(N2CCN(C)CC2)ccc1Nc1ncc2c(n1)N(C)c1ccccc1N(C)C2=O`
83

Specify measured kinase still bound, per cent of control for `COc1cc(N2CCN(C)CC2)ccc1Nc1ncc2c(n1)Nc1ccccc1NC2=O` .
59

Answer with reported kinase still bound, per cent of control of `CN1C(=O)c2ccccc2N(C)c2nc(NS(=O)(=O)c3ccc(N)cc3)ncc21`
100

Return kinase still bound, per cent of control (reported value) for this compound: `COc1cc(N2CCN(C)CC2)ccc1Nc1ncc2c(n1)N(C)c1sccc1C(=O)N2C`
92

Provide only the value of recorded kinase still bound, per cent of control for `COc1cc(C(N)=O)ccc1Nc1ncc2c(n1)N(C1CCCC1)[C@@H]1CCC[C@@H]1C(=O)N2C`
31

Report measured kinase still bound, per cent of control; entry is `CN1CCN(c2ccc(C(=O)Nc3ncc4c(n3)N(C)c3ccccc3C(=O)N4C)cc2)CC1`
100
